system: Rattus norvegicus; assay: Antiinflammatory activity in Sprague-Dawley rat assessed as inhibition of carrageenan-induced paw edema after 2 hrs; type: functional
metric: inhibition (INH) (%)
Answers are plain numbers, in %.

{"columns": ["item_smiles", "inhibition (INH) / %"],
 "data": [
  ["CC(=O)OC[C@@H](OC(C)=O)[C@@H](OC(C)=O)[C@H](/C=N/Nc1nc2nc3c(c(-c4ccc(Cl)cc4)c2c(=O)n1OC(C)=O)CCC/C3=C\\c1ccc(Cl)cc1)OC(C)=O", 20.37]
]}

Record inhibition (INH) per entry; entries follow.
1. CC(=O)OC[C@@H](OC(C)=O)[C@@H](OC(C)=O)[C@@H](OC(C)=O)[C@@H](OC(C)=O)c1n[nH]c2nc3nc4c(c(-c5ccc(Cl)cc5)c3c(=O)n12)CCC/C4=C\c1ccc(Cl)cc1
2. NNc1nc2nc3c(c(-c4ccc(Cl)cc4)c2c(=O)[nH]1)CCC/C3=C\c1ccc(Cl)cc1
3. O=c1c2c(-c3ccc(Cl)cc3)c3c(nc2nc2[nH]nc([C@H](O)[C@@H](O)[C@@H](O)[C@H](O)CO)n12)/C(=C/c1ccc(Cl)cc1)CCC3

[14.8, 34, 56]

Record inhibition (INH) per entry; entries follow.
1. O=c1c2c(-c3ccc(Cl)cc3)c3c(nc2nc2[nH]nc([C@H](O)[C@H](O)[C@H](O)CO)n12)/C(=C/c1ccc(Cl)cc1)CCC3
2. O=c1c2c(-c3ccc(Cl)cc3)c3c(nc2nc2[nH]nc([C@H](O)[C@H](O)[C@H](O)[C@H](O)CO)n12)/C(=C/c1ccc(Cl)cc1)CCC3

[40.58, 44]

====

system: Rattus norvegicus; assay: Antiinflammatory activity in Sprague-Dawley rat assessed as inhibition of carrageenan-induced paw edema after 2 hrs; assay type: functional
metric: inhibition (INH) (%)
Answers are plain numbers, in %.

Recorded results for 3 compounds are shown here.
{"columns": ["item_smiles", "test_target", "value_unit", "data_value"],
 "data": [
  ["O=c1[nH]c(=S)[nH]c2nc3c(c(-c4ccccc4)c12)CCC/C3=C\\c1ccccc1", "Rattus norvegicus", "%", 24],
  ["O=c1c2c(-c3ccc(Cl)cc3)c3c(nc2nc2[nH]nc([C@@H](O)[C@H](O)[C@H](O)CO)n12)/C(=C/c1ccc(Cl)cc1)CCC3", "Rattus norvegicus", "%", 52],
  ["CC(=O)OC[C@@H](OC(C)=O)[C@@H](OC(C)=O)[C@@H](/C=N/Nc1nc2nc3c(c(-c4ccc(Cl)cc4)c2c(=O)n1OC(C)=O)CCC/C3=C\\c1ccc(Cl)cc1)OC(C)=O", "Rattus norvegicus", "%", 28]
]}

Now look at this entry.
API: value(readout= inhibition (INH), system= Rattus norvegicus, query= "CC(=O)OC[C@@H](OC(C)=O)[C@H](OC(C)=O)[C@H](OC(C)=O)[C@@H](OC(C)=O)c1n[nH]c2nc3nc4c(c(-c5ccc(Cl)cc5)c3c(=O)n12)CCC/C4=C\c1ccc(Cl)cc1" )
14
